This section presents compounds with their documented viability, T/C values.
system: T-47D spheroids with HUVEC/MSC, viability; assay: Anticancer human tumor T-47D cell line growth inhibition [PI3K]; settings: second compound 0.1 µM; first compound 3 µM; stronger effect = lower value;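 further: spheroids exposed to agents for seven days before reading; percent of DMSO vehicle control luminescence so 100% = untreated growth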
Return type: number; implicit unit %.

compound="Cn1cnc2c(F)c(Nc3ccc(Br)cc3Cl)c(C(=O)NOCCO)cc21 + COc1c(OCCCN2CCOCC2)ccc2c3n(c(=NC(=O)c4cnc(N)nc4)nc12)CCN3" measurement_type="viability, T/C" result=35.4
compound="Cn1cnc2c(F)c(Nc3ccc(Br)cc3Cl)c(C(=O)NOCCO)cc21 + CC(Nc1ccc2c(c1)OCCn1cc(N3C(=O)OCC3C(F)F)nc1-2)C(N)=O" measurement_type="viability, T/C" result=83.8
compound="Cn1cnc2c(F)c(Nc3ccc(Br)cc3Cl)c(C(=O)NOCCO)cc21 + Cc1nc(NC(=O)N2CCCC2C(N)=O)sc1-c1ccnc(C(C)(C)C(F)(F)F)c1" measurement_type="viability, T/C" result=92.3

Which value of viability, T/C has been reported for Cn1cnc2c(F)c(Nc3ccc(Br)cc3Cl)c(C(=O)NOCCO)cc21 + CC(Nc1ncnc2nc[nH]c12)c1cc2cccc(Cl)c2c(=O)n1-c1ccccc1 in the records? 102
